test system: H9; assay: Inhibitory activity against HIV-1 IIIB replication in H9 cell line; assay type: functional, cell-based; conditions: Homo sapiens
quantity-name: EC50 (µg/mL)

Incoming: Can you look up the measured EC50 of "O=c1c(O)c(-c2ccc(O)c(O)c2)oc2cc(O)cc(O)c12" for me?
Outgoing: 1.6

a: O=c1c(O[C@@H]2O[C@H](CO)[C@@H](O)[C@H](O)[C@H]2O)c(-c2ccc(O)cc2)oc2cc(O)cc(O)c12
b: O=c1cc(-c2ccc(O)cc2)oc2cc(O)cc(O)c12
c: O=c1cc(-c2ccc(O)cc2)oc2cc(O[C@@H]3O[C@H](CO)[C@@H](O)[C@H](O)[C@H]3O)cc(O)c12
Incoming: Sort ascending by EC50. Please, when replying, give the labels in the order that was requested.
Outgoing: c, b, a
(c: 1.8 µg/mL, b: 9 µg/mL, a: 80 µg/mL)

The reported measurements were obtained from ChEMBL document CHEMBL1150027.
